- EXPERIMENTAL_SYSTEM: KACh channel (Rattus norvegicus, UniProt P48548+P63251)
- Sequence (P63251 whole entry): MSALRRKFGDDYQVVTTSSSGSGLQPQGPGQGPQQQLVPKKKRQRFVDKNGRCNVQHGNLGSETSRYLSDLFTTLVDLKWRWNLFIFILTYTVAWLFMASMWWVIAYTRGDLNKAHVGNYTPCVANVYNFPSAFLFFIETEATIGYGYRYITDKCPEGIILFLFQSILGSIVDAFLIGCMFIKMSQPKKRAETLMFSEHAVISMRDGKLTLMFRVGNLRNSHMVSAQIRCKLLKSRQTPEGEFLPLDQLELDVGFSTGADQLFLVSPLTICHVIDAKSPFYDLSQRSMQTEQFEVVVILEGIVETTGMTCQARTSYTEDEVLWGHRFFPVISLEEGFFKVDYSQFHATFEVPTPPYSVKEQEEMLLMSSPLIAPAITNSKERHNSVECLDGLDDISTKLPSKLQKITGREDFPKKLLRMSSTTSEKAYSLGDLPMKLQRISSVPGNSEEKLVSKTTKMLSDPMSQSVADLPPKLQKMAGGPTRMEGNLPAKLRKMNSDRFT
- Sequence (P48548 whole entry): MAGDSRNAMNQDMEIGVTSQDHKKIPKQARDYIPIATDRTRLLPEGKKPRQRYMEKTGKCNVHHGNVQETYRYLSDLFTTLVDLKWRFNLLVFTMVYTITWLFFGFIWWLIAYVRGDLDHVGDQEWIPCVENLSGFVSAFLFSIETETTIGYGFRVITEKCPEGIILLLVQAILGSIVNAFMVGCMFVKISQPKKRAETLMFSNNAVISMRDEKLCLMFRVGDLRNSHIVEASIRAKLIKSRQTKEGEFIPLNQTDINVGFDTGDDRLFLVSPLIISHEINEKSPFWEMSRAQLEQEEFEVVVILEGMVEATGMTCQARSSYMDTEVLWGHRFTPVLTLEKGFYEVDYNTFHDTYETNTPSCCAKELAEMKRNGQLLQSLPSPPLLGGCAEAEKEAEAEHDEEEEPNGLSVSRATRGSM
- Assay type: cell-based
- CONDITIONS: K 1/2 for inhibition, pipette solution 70 mM K+; n = 3
METRIC: IC50 (nM)
Give the number; nM is assumed, so skip it.

Under KACh channel (Rattus norvegicus, UniProt P48548+P63251): IC50 value of CCCCC/C=C\C/C=C\CCCCCCCC(=O)O [Linoleic acid [18:2 (n-6)], Linoleic acid] ?
1600

Data credit: paper PMC2217204
